Experiment: qHTS assay to identify small molecule antagonists of the thyroid receptor (TR) signaling pathway - cell viability counter screen (AID 743064); further: nearly all actives have a fitted effect of over 50% in size
Settings: GH3.TRE-Luc viability, CellTiter-Fluor, 24 h; series mostly up to 70.3 µM
Records with an inconclusive call do not appear. Calls of active or inactive are those of the source. The call rests on the fitted dose curve; in most records, active means well fitted cell-killing curve with a large enough effect in the repeat runs; inconclusive means weak or mixed curves, or effect the other way; inactive means no such curve, though single readings can be large or run the other way.
Return exactly one item of Y for active, N for inactive

compound=C[C@@H]1C/C=C/C=C/C=C/C=C/[C@H](O[C@@H]2O[C@H](C)[C@@H](O)[C@H](N)[C@@H]2O)C[C@@H]2O[C@](O)(C[C@@H](O)C[C@H]3O[C@@H]3/C=C/C(=O)O1)C[C@H](O)[C@H]2C(=O)O class_label=N
compound=CC(=O)O[C@H]1CC[C@@]2(C)C(=CC[C@H]3[C@@H]4CC[C@H](C(C)=O)[C@@]4(C)CC[C@@H]32)C1 class_label=N
compound=OC[C@@H](O)C(O)[C@H](O)CO class_label=N
compound="O=C(O)C1CCCN1 (stereo not given)" class_label=N
compound=CCCC1([C@H](O)C/C=C/[C@H]2[C@H](O)CC(=O)[C@@H]2CCCCCCC(=O)OC)CCC1 class_label=Y
compound=CC1=C(/C=C/C(C)=C/C=C/C(C)=C/C(=O)Oc2c(C)c(C)c3c(c2C)CC[C@@](C)(CCC[C@H](C)CCC[C@H](C)CCCC(C)C)O3)C(C)(C)CCC1 class_label=N

Short answer needed: outcome of this test for CCOc1ccc(N=C(C)Nc2ccc(OCC)cc2)cc1 ? N

Short answer needed: outcome of this test for CC(O)[C@@H]1NC(=O)[C@H](Cc2ccccc2)NC(=O)[C@H](C(C)O)NC(=O)[C@H](CCCCN)NC(=O)[C@H](Cc2c[nH]c3ccccc23)NC(=O)[C@H](Cc2ccccc2)NC(=O)[C@H](Cc2ccccc2)NC(=O)[C@H](CC(N)=O)NC(=O)[C@H](CCCCN)NC(=O)[C@@H](NC(=O)CNC(=O)[C@H](C)N)CSSC[C@@H](C(=O)O)NC(=O)[C@H](CO)NC1=O (stereo not given in full) ? N

Short answer needed: outcome of this test for CN(C)C(=O)CCSC(SCCC(=O)O)c1cccc(/C=C/c2ccc3ccc(Cl)cc3n2)c1 (stereo not given) ? Y

----------
Test: qHTS assay to test for compound auto fluorescence at 590 nm (red) in HepG2 cell free culture (AID 720684)
Details: cell-free medium autofluorescence, red 540/590 nm; series mostly up to 46 µM
Active and inactive are the calls of the source. The call rests on the fitted dose curve; in most records, active means well fitted curve in the direction sought with a large enough effect in the repeat runs; inconclusive means weak or mixed curves; inactive means flat fitted curve, though single readings scatter. Positions of bridges follow the written chain, without caps; N, C: chain ends. Non-standard residues stand in square brackets, D forms with d. Residues, ends and D or L forms follow the SMILES beside them. *: point of attachment. X2 = CC[C@H](C)CCCCC(=O)*; Dab = NCC[C@H](N)C(=O)O
observation_type: outcome

Use these answered entries as a reference point.
compound=C=C1C(=C/C=C2\CCC[C@]3(C)[C@@H]([C@H](C)/C=C/[C@H](C)C(C)C)CC[C@@H]23)C[C@@H](O)C[C@@H]1O observed_measurement=inactive
compound="CC[C@H](C)CCCCC(=O)N[C@@H](CCN)C(=O)N[C@H](C(=O)N[C@@H](CCN)C(=O)N[C@H]1CCNC(=O)[C@@H]([C@H](C)O)NC(=O)[C@H](CCN)NC(=O)[C@H](CCN)NC(=O)[C@H](CC(C)C)NC(=O)[C@@H](CC(C)C)NC(=O)[C@H](CCN)NC1=O)[C@@H](C)O (X2-[Dab]T[Dab][Dab][Dab][dL]L[Dab][Dab][dT]; lactam 4-C)" observed_measurement=inactive
compound=CC(C)CN(C[C@@H](OP(=O)(O)O)[C@H](Cc1ccccc1)NC(=O)O[C@H]1CCOC1)S(=O)(=O)c1ccc(N)cc1 observed_measurement=inactive
compound="CC(C(=O)O)c1ccc(N2Cc3ccccc3C2=O)cc1 (stereo unspecified)" observed_measurement=inactive

Return reported outcome. Input compound: OC[C@H]1O[C@@H](n2cnc3c2NC=NC[C@H]3O)C[C@@H]1O inactive

Return reported outcome. Input compound: CO[C@H]1[C@@H](O)[C@H](N)[C@@H](O[C@H]2O[C@H]([C@H](C)N)CC[C@H]2N)[C@H](O)[C@@H]1N(C)C(=O)CN inactive
